Test: recombinant UMI read abundance after kanamycin selection (control-corrected) (log10(CPM+1)); higher = more efficient recombination; extreme values may be limits of the assay; sequences stand for … in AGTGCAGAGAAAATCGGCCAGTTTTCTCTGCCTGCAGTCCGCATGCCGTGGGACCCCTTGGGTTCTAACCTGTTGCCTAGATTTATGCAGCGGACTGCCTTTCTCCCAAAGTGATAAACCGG…AGGTTGGTTTCACT; site = the 11-nt donor;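 also: IS621 bridge recombinase in Escherichia coli cells against a fixed T5 target plasmid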
Would you kindly list recombinant UMI read abundance (log10) for each of these sequences?
# output: bare number, no unit

IN: Which recombinant UMI read abundance (log10) value is on record for CGATCCTCATGGACCGGTTTTCCCGGTAATCCGTATTTGCT (site CGATCATCTAG) ?
OUT: 0

IN: Which recombinant UMI read abundance (log10) value is on record for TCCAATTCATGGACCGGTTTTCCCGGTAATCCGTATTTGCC (site TCCACTTCTGG) ?
OUT: 0

IN: Which recombinant UMI read abundance (log10) value is on record for CCCTAGCCATGGACCGGTTTTCCCGGTAATCCGTATTTGAC (site CCCTAGCCTGG) ?
OUT: 0

IN: Which recombinant UMI read abundance (log10) value is on record for CTCGCTACATGGACCGGTTTTCCCGGTAATCCGTATTTGAG (site CTCCCTACTCT) ?
OUT: 0.00726

IN: Which recombinant UMI read abundance (log10) value is on record for GTGGAAACATGGACCGGTTTTCCCGGTAATCCGTATTTGCA (site CTGGAAACTTG) ?
OUT: 1.56

IN: Which recombinant UMI read abundance (log10) value is on record for CAGCTACCATGGACCGGTTTTCCCGGTAATCCGTATTTGCT (site CCGCTACCTAG) ?
OUT: 0

IN: Which recombinant UMI read abundance (log10) value is on record for CTGGAGACATGGACCGGTTTTCCCGGTAATCCGTATTTGCA (site CTGGATACTTG) ?
OUT: 1.03

IN: Which recombinant UMI read abundance (log10) value is on record for TACCTCCCATGGACCGGTTTTCCCGGTAATCCGTATTTGGC (site TACCTCCCTGC) ?
OUT: 0

IN: Which recombinant UMI read abundance (log10) value is on record for ATGTAGGCATGGACCGGTTTTCCCGGTAATCCGTATTTGTC (site ATGTAGGCTGT) ?
OUT: 1.91
